Here the recorded Emax is given for each entry.
- TGT: KCNQ 2/3 channels (Homo sapiens, UniProt O43525+O43526)
- Construct: expressed in transfected cells; host or cells: HEK293
- PROTOCOL_NOTES: KCNQ 2/3 channel activation, thallium flux FLIPR assay (BTC-AM dye)
- Type: cell-based
- DETAILS: HEK293, maximum response relative to the response of 10 μM retigabine (set at 100%); HEK293 KCNQ2/KCNQ3 cells; read-out: % MAX
- Method: The following example describes the assay that can be used to identify compounds that activate KCNQ 2/3 channels. HEK293 cells stably expressing human KCNQ2 and KCNQ3 subunits were seeded in 96-well, black-walled, clear-bottomed, poly-D-lysine coated plates (BD Biosciences, Bedford, Mass.) at a density of 1×10^5 cells per well 24 hours before the assay. […] The fluorescence signal was initiated by adding 100 μL of assay buffer containing 6 mM TlNO3 and 10 mM K2SO4. […]
State the value, then name its unit.

Below: 3 compounds and their reported Emax.
COMPOUND: O=C(Cc1ccc(Cl)cc1)Nn1nc(-c2cccs2)c2ccccc2c1=O [Example 11]
TGT: KCNQ 2/3 channels (Homo sapiens, UniProt O43525+O43526)
RESULT_VALUE: 105%
//
COMPOUND: Nc1ccc(Sc2nn(NC(=O)Cc3ccc(Cl)cc3)c(=O)c3ccccc23)cc1 [Example 105]
TGT: KCNQ 2/3 channels (Homo sapiens, UniProt O43525+O43526)
RESULT_VALUE: 120%
//
COMPOUND: O=C(CC1CCOC1)Nn1nc(N2CCOCC2)c2ccccc2c1=O (stereo not shown) [Example 66]
TGT: KCNQ 2/3 channels (Homo sapiens, UniProt O43525+O43526)
RESULT_VALUE: 3.89%

Lab note: next compound to report on.
INPUT: What value of Emax has been recorded for this entry: N#Cc1ccc(S(=O)(=O)c2nn(NC(=O)Cc3ccc(F)cc3)c(=O)c3ccccc23)cc1 [Example 224]
OUTPUT: 75.2%

----------
- TGT: KCNQ 2/3 channels (Homo sapiens, UniProt O43525+O43526)
- Construct: expressed in transfected cells; host or cells: HEK293
- PROTOCOL_NOTES: KCNQ 2/3 channel activation, thallium flux FLIPR assay (BTC-AM dye)
- Format: cell-based
- DETAILS: HEK293, maximum response relative to the response of 10 μM retigabine (set at 100%); HEK293 KCNQ2/KCNQ3 cells; read-out: % MAX
Here the recorded Emax is given for each entry.
Give just the numeric value; % need not be written.

Below: 4 compounds and their reported Emax.
COMPOUND: O=C(C[C@@H]1C[C@@H]2C=C[C@H]1C2)Nn1nc(-c2cccs2)c2ccccc2c1=O [Example 13]
TGT: KCNQ 2/3 channels (Homo sapiens, UniProt O43525+O43526)
Emax [%]: 138
//
COMPOUND: O=C(Cc1ccc(-c2ccccc2)cc1)Nn1nc(N2CCOCC2)c2ccccc2c1=O [Example 158]
TGT: KCNQ 2/3 channels (Homo sapiens, UniProt O43525+O43526)
Emax [%]: 6.84
//
COMPOUND: CC(C)(C)OC(=O)NCc1nn(NC(=O)Cc2ccc(F)cc2)c(=O)c2ccccc12 [Example 125]
TGT: KCNQ 2/3 channels (Homo sapiens, UniProt O43525+O43526)
Emax [%]: 93.1
//
COMPOUND: O=C(Cc1ccc(Cl)cc1)Nn1nc(CNC(=O)OCc2ccccc2)c2ccccc2c1=O [Example 188]
TGT: KCNQ 2/3 channels (Homo sapiens, UniProt O43525+O43526)
Emax [%]: 15.3

INPUT: What value of Emax has been recorded for this entry: C[C@@H]1CN(c2nn(NC(=O)Cc3cc(F)cc(F)c3)c(=O)c3ccccc23)C[C@H](C)O1 [Example 88]
OUTPUT: 107

INPUT: Moving on to the next compound: CS(=O)(=O)c1ccc(CC(=O)Nn2nc(N3CCOCC3)c3ccccc3c2=O)cc1 [Example 130]
OUTPUT: 5.33

INPUT: Moving on to the next compound: CC(C)(C)CNC(=O)Cc1nn(NC(=O)Cc2ccc(Cl)cc2)c(=O)c2ccccc12 [Example 123]
OUTPUT: 13

INPUT: Moving on to the next compound: Cc1ccc(CC(=O)Nn2nc(N3CCOCC3)c3ccccc3c2=O)cc1 [Example 141]
OUTPUT: 72

INPUT: Moving on to the next compound: O=C(Cc1ccc(Cl)cc1)Nn1nc(CNC(=O)OC2CCCC2)c2ccccc2c1=O [Example 187]
OUTPUT: 32
